Biological target: T1, murine BCMA extracellular domain, monomeric Fc-fusion (murine, UniProt O88472 1-49, site-specifically biotinylated at the C-terminal avi-tag)
T1 construct: extracellular domain; also called muBCMA; mouse BCMA; not shown: hinge and Fc of human IgG1, knob chain; avi-tag; unfused human IgG1 Fc portion (hole chain)
T1 sequence (O88472 whole entry, the tested form may be a part): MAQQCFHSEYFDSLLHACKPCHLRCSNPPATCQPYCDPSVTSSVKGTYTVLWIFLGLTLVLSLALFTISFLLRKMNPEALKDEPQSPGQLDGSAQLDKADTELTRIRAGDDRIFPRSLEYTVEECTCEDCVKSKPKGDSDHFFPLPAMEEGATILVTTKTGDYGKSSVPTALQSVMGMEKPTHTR
Assay: SPR one-shot kinetics (ProteOn XPR36), IgG captured from HEK293 supernatant via anti-human F(ab)2, BCMA as analyte
Experimental: All experiments were performed at 25° C. using PBST as running buffer (10 mM PBS, pH 7.4 and 0.005% (v/v) Tween®20). A ProteOn XPR36 biosensor equipped with GLC and GLM sensor chips and coupling reagents (10 mM sodium acetate, pH 4.5, sulfo-N-hydroxysuccinimide, 1-ethyl-3-(3-dimethylaminopropyl)-carbodiimide hydrochloride [EDC] and ethanolamine) was purchased from BioRad Inc. (Hercules, Calif.). […] Dissociation was monitored for 5 min Kinetic data were analyzed in ProteOn Manager v. […]
pKd: −log10 of the molar value.
Lab note: compare pKd against 9. Equal or greater, write yes. Smaller, write no.

binder="Mab 33 IgG (antibody, V domains shown) VH: EVQLLESGGGLVQPGGSLRLSCAASGFTFYTNAMGWVRQAPGKGLEWVSAINRFGGSTYYADSVKGRFTISRDNSKNTLYLQMNSLRAEDTAVYYCAKVLGWFDYWGQGTLVTVSS VL: EIVLTQSPGTLSLSPGERATLSCRASQSVSEYYLAWYQQKPGQAPRLLIEHASTRATGIPDRFSGSGSGTDFTLTISRLEPEDFAVYYCQQYGYPPDFTFGQGTKVEIK" category_label=yes

Here is another binder to look at.
State whether the measured pKd reaches 9, counting equality as reaching it, for Mab 42 IgG (antibody, V domains shown, also called antibody 42; clone 42) VH: EVQLLESGGGLVQPGGSLRLSCAASGFTFSDNAMGWVRQAPGKGLEWVSAISGPGSSTYYADSVKGRFTISRDNSKNTLYLQMNSLRAEDTAVYYCAKVLGWFDYWGQGTLVTVSS VL: EIVLTQSPGTLSLSPGERATLSCRASQSVSDEYLSWYQQKPGQAPRLLIHSASTRATGIPDRFSGSGSGTDFTLAISRLEPEDFAVYYCQQYGYPPDFTFGQGTKVEIK no

meta.source: patent US20220002427A1
